Hello, the source for this data is ChEMBL document CHEMBL1201862, in case you need it.

Test system: A549
experimental_protocol: NCI tumour cell line growth inhibition, 48 h
Calls of active or inactive are those of the source. Cut-off read from the data, not from the text of the source: active = GI50 up to about 1.1 µM and inactive = higher.
Return exactly one item of label 1 (active), label 0 (inactive)

CCCCCCc1cn([C@H]2C[C@H](O)[C@@H](CO)O2)c(=O)[nH]c1=O
label 0

Q: GET /call?item= O=C(C[n+]1ccccc1)N/N=C(\C(=O)NC1=C(Cl)C(=O)c2ccccc2C1=O)c1c(O)c2ccc(O)cc2oc1=O returns the recorded outcome of this test.
Result: label 0

Q: GET /call?item= CC1=C(N2CC2)C(=O)c2ccccc2C1=O returns the recorded outcome of this test.
Result: label 1

Q: GET /call?item= Cc1cccc(C(C)C)c1NC(=O)CC1C(=O)Nc2ccccc2S1(=O)=O (stereo not drawn) returns the recorded outcome of this test.
Result: label 0

Q: GET /call?item= O=C(c1ccccc1)C1C[C@H]2CO[C@H](c3ccccc3)N2C1=O (stereo partly drawn) returns the recorded outcome of this test.
Result: label 0

Q: GET /call?item= Cc1cc(C#N)c(Nc2c(C)cccc2[N+](=O)[O-])s1 returns the recorded outcome of this test.
Result: label 0

====

The entries below are paired with their reported GI50.
Tested on: UACC-62
experimental_protocol: NCI tumour cell line growth inhibition, 48 h
Active and inactive are the calls of the source. Cut-off read from the data, not from the text of the source: active = GI50 up to about 1.1 µM and inactive = higher.

Field: example entries. Status: answers known.
COC(=O)C1C(OC(=O)c2ccccc2)CC2CCC1N2C(N)=O (stereo not drawn)
> 100 µM (inactive)
O=C(NCCCNCCN1C(=O)c2cccc3cc([N+](=O)[O-])cc(c23)C1=O)c1cc(-c2ccccc2)nc2ccccc12
5.12 µM (inactive)

Pending compound:
Q: Tell us which GI50 value is on record for CC(C)C(C/C=C1/CC(CO)(COC(=O)C(C)(C)C)OC1=O)C(C)C (stereo not drawn)
Result: 12.9 µM (inactive)

====

Test system: DLD-1
experimental_protocol: NCI tumour cell line growth inhibition, 48 h
Calls of active or inactive are those of the source. Cut-off read from the data, not from the text of the source: active = GI50 up to about 1.1 µM and inactive = higher.
The entries below are paired with their reported GI50.

Field: example entries. Status: answers known.
O=C(O)CCNCCCNCCC(=O)O
> 100 µM (inactive)
CCOC1=CP(=O)(OCC)CC(C)=C1Cl (stereo not drawn)
> 100 µM (inactive)

Q: Tell us which GI50 value is on record for COc1ccc(NC(=O)CC(=O)N/N=C/c2ccc(N(CCC#N)S(=O)(=O)c3ccccc3)cc2)cc1
Result: > 100 µM (inactive)

====

Test system: OVCAR-5
experimental_protocol: NCI tumour cell line growth inhibition, 48 h
Activity calls are given as the source filed them. Cut-off read from the data, not from the text of the source: active = GI50 up to about 1.1 µM and inactive = higher.
measurement_kind: GI50

CC(=O)O[C@H]1CC[C@@]2(C)C(=CC[C@@H]3C2CC[C@]2(C)Nc4c(cnn4-c4ccccc4)CC32)C1 (some centres undefined)
19.2 µM (inactive)
CC(=O)O/N=C/c1cc2c(cc1Br)OCO2
> 349 µM (inactive)
Cc1ccc(C(=O)O)c(CC2Cc3c(C)cccc3C2=O)c1 (centres undefined)
> 100 µM (inactive)

Q: Tell us which GI50 value is on record for COc1ccc2oc(C(=O)O)c3c2c1CCC3CCC(=O)O (centres undefined)
Result: > 100 µM (inactive)

Q: Tell us which GI50 value is on record for N=C(N)NS(=O)(=O)c1ccc(Nc2c3ccccc3nc3c(C(=O)N4CCN(CCO)CC4)cccc23)cc1
Result: > 100 µM (inactive)

Q: Tell us which GI50 value is on record for Cc1cccc(C)c1NC(=O)C(=O)CC(=O)/C=C/c1ccccc1
Result: > 100 µM (inactive)

Q: Tell us which GI50 value is on record for Cc1cccc(C(C)(C)C)c1NC(=O)CCc1nnc(S)[nH]1
Result: > 100 µM (inactive)

Q: Tell us which GI50 value is on record for O=C(CC(=O)n1nc(-c2ccccc2)c(/N=N/c2ccc(Cl)cc2)c1-c1ccccc1)Nc1ccc(Cl)cc1
Result: > 100 µM (inactive)

Q: Tell us which GI50 value is on record for C=C1CCCC2[C@](C)(CC3=C(Cl)C(=O)C=C(OC)C3=O)C(C)CC[C@]12C (some centres undefined)
Result: 2.94 µM (inactive)

Q: Tell us which GI50 value is on record for Cc1cc(-c2cscn2)c(O)c([N+](=O)[O-])c1
Result: > 100 µM (inactive)

Q: Tell us which GI50 value is on record for C/C(=N\NC(=S)N1CCN(C)CC1)c1nc2cccnc2[nH]1
Result: > 100 µM (inactive)

Q: Tell us which GI50 value is on record for CCOC(=O)c1ccc2c(c1)nc1n2C(c2c(F)cccc2F)SC1 (centres undefined)
Result: 59.6 µM (inactive)

Q: Tell us which GI50 value is on record for COC(=O)/C(=N/O)C(C(=O)OC)C(=O)C(=O)Nc1c(Cl)cc(C)cc1S(=O)(=O)O (centres undefined)
Result: > 100 µM (inactive)

Q: Tell us which GI50 value is on record for Cc1cc(S(=O)(=O)n2ccnc2Oc2cccc(Cl)c2)c(SSc2cc(Cl)c(C)cc2S(=O)(=O)n2ccnc2Oc2cccc(Cl)c2)cc1Cl
Result: 10.4 µM (inactive)

Q: Tell us which GI50 value is on record for CCN1CCN(c2ccc(Nc3ccnc4ccc5c(nnn5C)c34)cc2)CC1
Result: 9.16 µM (inactive)

Q: Tell us which GI50 value is on record for CCCCc1cc2c(C)cc(=O)oc2c(O)c1O
Result: 69.7 µM (inactive)

Q: Tell us which GI50 value is on record for CS(=O)(=O)c1nc(-c2cc3c(c(S(C)(=O)=O)n2)CCCC3)cc2c1CCCCC2
Result: > 100 µM (inactive)

Q: Tell us which GI50 value is on record for CN1CCN(c2nc3cc(F)ccc3n3cccc23)CC1
Result: 51.2 µM (inactive)

Q: Tell us which GI50 value is on record for CCOC1=CP(=O)(OCC)CC(C)=C1Cl (centres undefined)
Result: > 100 µM (inactive)

Q: Tell us which GI50 value is on record for CC(C)C[C@H](NC(=O)[C@H](CCc1ccccc1)NC(=O)c1ccc2ccccc2n1)B(O)O
Result: < 0.0268 µM (active)

Q: Tell us which GI50 value is on record for COC(=O)C1C(OC(=O)c2ccccc2)CC2CCC1N2C(N)=O (centres undefined)
Result: > 100 µM (inactive)
